Documented Spleen across a set of molecules
Tested on: S180 tumor
measurement-description: Biodistribution in tumor-bearing mice
Type: in vivo
experimental-setup: 30 min, i.v., mice bearing S180 tumor, n=5, mean ± SD
test-readout: Spleen (% ID/g)

molecule: O=C(Cc1ccc(C[N+]#[C][99Tc+]([C]#[N+]Cc2ccc(CC(=O)NC3C(O)OC(CO)C(O)C3O)cc2)([C]#[N+]Cc2ccc(CC(=O)NC3C(O)OC(CO)C(O)C3O)cc2)([C]#[N+]Cc2ccc(CC(=O)NC3C(O)OC(CO)C(O)C3O)cc2)([C]#[N+]Cc2ccc(CC(=O)NC3C(O)OC(CO)C(O)C3O)cc2)[C]#[N+]Cc2ccc(CC(=O)NC3C(O)OC(CO)C(O)C3O)cc2)cc1)NC1C(O)OC(CO)C(O)C1O (stereo not shown) [^99mTc-4-CNMBDG]
test-readout: Spleen
endpoint-unit: % ID/g
meas-value: 2.24
//
molecule: O=C(NC1C(O)OC(CO)C(O)C1O)c1cccc(C[N+]#[C][99Tc+]([C]#[N+]Cc2cccc(C(=O)NC3C(O)OC(CO)C(O)C3O)c2)([C]#[N+]Cc2cccc(C(=O)NC3C(O)OC(CO)C(O)C3O)c2)([C]#[N+]Cc2cccc(C(=O)NC3C(O)OC(CO)C(O)C3O)c2)([C]#[N+]Cc2cccc(C(=O)NC3C(O)OC(CO)C(O)C3O)c2)[C]#[N+]Cc2cccc(C(=O)NC3C(O)OC(CO)C(O)C3O)c2)c1 (stereo not shown) [^99mTc-3-CNPEDG]
test-readout: Spleen
endpoint-unit: % ID/g
meas-value: 0.86
//
molecule: O=C(NC1C(O)OC(CO)C(O)C1O)c1cccc([N+]#[C][99Tc+]([C]#[N+]c2cccc(C(=O)NC3C(O)OC(CO)C(O)C3O)c2)([C]#[N+]c2cccc(C(=O)NC3C(O)OC(CO)C(O)C3O)c2)([C]#[N+]c2cccc(C(=O)NC3C(O)OC(CO)C(O)C3O)c2)([C]#[N+]c2cccc(C(=O)NC3C(O)OC(CO)C(O)C3O)c2)[C]#[N+]c2cccc(C(=O)NC3C(O)OC(CO)C(O)C3O)c2)c1 (stereo not shown) [^99mTc-3-CNBzDG]
test-readout: Spleen
endpoint-unit: % ID/g
meas-value: 1.06
//
molecule: O=C(NC1C(O)OC(CO)C(O)C1O)c1ccc(CC[N+]#[C][99Tc+]([C]#[N+]CCc2ccc(C(=O)NC3C(O)OC(CO)C(O)C3O)cc2)([C]#[N+]CCc2ccc(C(=O)NC3C(O)OC(CO)C(O)C3O)cc2)([C]#[N+]CCc2ccc(C(=O)NC3C(O)OC(CO)C(O)C3O)cc2)([C]#[N+]CCc2ccc(C(=O)NC3C(O)OC(CO)C(O)C3O)cc2)[C]#[N+]CCc2ccc(C(=O)NC3C(O)OC(CO)C(O)C3O)cc2)cc1 (stereo not shown) [^99mTc-4-CNPeDG]
test-readout: Spleen
endpoint-unit: % ID/g
meas-value: 0.70
